system: femoral artery; assay: Vasodilator activity, femoral artery (technique of perfused paw); assay type: in vivo; set-up: key: O: no action; +: slight activity; ++: effect equal to half the effect of papaverine; +++: effect equal to that of papaverine; ++++: effect higher than that of papaverine; conditions: intra-arterial, 30 mg/kg, anaesthetized dog, vs papaverine at same dose
observation.type: VASODILATOR ACTIVITY

Consider the reported VASODILATOR ACTIVITY for these compounds:
>>> value_measured("CCCCCCCCNC(C)C(O)c1ccc2c(c1)CCCCS2 (centres unmarked)")
"+++"
>>> value_measured("CCCCCCCCNC(C)C(O)c1ccc2c(c1)CCC(C)S2 (centres unmarked)")
"+++"
>>> value_measured("CC(CCCc1ccccc1)NC(C)C(O)c1ccc2c(c1)CC(C)O2 (centres unmarked)")
"++"
>>> value_measured("CC1Cc2cc(C(O)C(C)NCCCC(=O)c3ccc(F)cc3)ccc2O1 (centres unmarked)")
"+++"

Q: Report VASODILATOR ACTIVITY on femoral artery for this entry: CCCCCCCCNC(C)C(O)c1ccc2c(c1)CCC2 (centres unmarked)
Ans: +++
